Test system: Mycobacterium tuberculosis
Experiment: Cornell - Phenotypic assay to identify agents that inhibit growth of Mycobacterium tuberculosis
Format: functional
Design: scale not given: direction of the effect not stated beside the values
Settings: 10 mM as filed; unlikely as a test dose
Among all 53,000 compounds or so, about 900 (1.7%) showed an effect of 50% or more. The sample holds strong results, similar compounds and a random draw of the others, so the mix is not that of the screen.
Value kind: Percent Effect
Write the quantity with the unit trailing the number.

Problem: State its Percent Effect for this molecule: Cc1c[nH]c(C2COCCN2C(=O)c2ccc(=O)[nH]n2)n1 (configuration not stated)
Result: 0.9699%

Problem: Identify the reported Percent Effect for the following entry. COc1ccc(C2CNCCN2C(=O)c2cccc3cccnc23)cc1 (configuration not stated)
Result: -23.3%

---

System: Mycobacterium tuberculosis
Assay: Cornell - Phenotypic assay to identify agents that inhibit growth of Mycobacterium tuberculosis
Assay type: functional
Parameters: scale not given: direction of the effect not stated beside the values
Conditions: 10 mM as filed; unlikely as a test dose
Out of some 53,000 compounds screened, about 900 (1.7%) showed an effect of 50% or more. This is one part of a sample in which strong results are shown more often than they occur.
Value kind: Percent Effect (%)
Response body: numeric value in %, unit text excluded.

Reference set, count: 5
Problem: Consider the compound `Cc1nccc(-c2cccc(NCC(=O)N3CCNC(=O)C3)c2)n1` and give its recorded Percent Effect.
Result: 4.567

Problem: Identify Percent Effect associated with the compound `COc1cc(Oc2ccc(C(N)=O)cn2)ccc1CN1CCCC1`
Result: 6.938

Problem: Respond only with Percent Effect recorded for `CC(=O)c1ccc(N2CCN(C(=O)c3cc(C(C)C)nn3C)CC2)cc1`
Result: 16.14

Problem: Output measured Percent Effect for this item: COCCC(=O)N1CCCC([C@@H]2C[C@H](C(F)F)n3ncnc3N2)C1 (some centres not stated)
Result: 3.93

Problem: Provide one value: measured Percent Effect of Cc1cc2ccccc2n1CCC(=O)N1CCCC1Cn1cccn1 (configuration not stated)
Result: 91.97

Next:
Problem: Give a short answer stating reported Percent Effect for `COc1cc(Oc2cnc3ccccc3n2)ccc1CN1CCCC1` .
Result: 89.59

Problem: Identify Percent Effect associated with the compound `COc1cc(Oc2ccc(C(F)(F)F)cn2)ccc1CN1CCCC1`
Result: 21.65

Problem: Output measured Percent Effect for this item: `CCC(CC)CN1CCN(CC(=O)Nc2ccc3nsnc3c2)CC1`
Result: 23.66

Problem: Look up Percent Effect of `COc1cc(Oc2ccc(C#N)cn2)ccc1CN1CCCC1` and report it.
Result: 27.7

Problem: Answer with reported Percent Effect of Cc1cn2c(n1)CCC(NC(=O)c1oc(Br)cc1C)C2 (configuration not stated)
Result: -43.16

Problem: Dear colleague, please send me the reported Percent Effect for Cc1cc(C)n(CC(=O)N2CCCCC2CCN(C)C)c(=O)n1 (configuration not stated) when you can.
Result: 19.58

Problem: Give the value of Percent Effect reported for the following: Cc1cc2ccccc2n1CCC(=O)N1CCN(C)CC1C(N)=O (configuration not stated)
Result: 81.47

---

System: Mycobacterium tuberculosis
Experiment: Cornell - Phenotypic assay to identify agents that inhibit growth of Mycobacterium tuberculosis
Format: functional
Parameters: scale not given: direction of the effect not stated beside the values
Details: 10 mM as filed; unlikely as a test dose
Screen size: about 53,000 compounds; about 900 (1.7%) showed an effect of 50% or more. The full list was thinned out, with strong results kept by preference.
Quick reference: Percent Effect of the listed items.
The response must be a number in % with no trailing unit.

Here's what some known entries look like.
Problem: Hello, please tell me recorded Percent Effect for this one: `Cc1cccc(NS(=O)(=O)c2ccc(C#N)nc2)c1C#N`
Result: 105.8

Problem: Fill in reported Percent Effect for this entry: `COCCN1CCN(Cc2nc(-c3ccoc3)no2)CC1`
Result: -27.89

Problem: Return value of Percent Effect for input `CC(C)C[C@@H]1N[C@H](C(=O)NCC2CC2)Cc2c[nH]c3cccc1c23` , no commentary.
Result: 40.17

Problem: Could you please provide reported Percent Effect for `O=c1[nH]cc(N2CCCCC2)c(=O)[nH]1` ? Thanks!
Result: 4.601

Problem: Entry `CNc1cc(-c2ccccc2CN)c2cc[nH]c2n1` needs its Percent Effect filled in; supply it.
Result: 23.62

Problem: Give Percent Effect for the following compound: CCCn1nnnc1CN(C)C(C)c1ccc(C)cc1 (stereo not given)
Result: 18.09

Problem: Quote Percent Effect reported for `Cn1nc(C2CN(S(C)(=O)=O)C2)c2nccnc21` please.
Result: -1.799

Problem: Provide Percent Effect value for the following compound: `CN(C)C(=O)CN1C[C@H]2CN(Cc3cccc(F)c3)C(=O)[C@H]2C1.O=C(O)C(F)(F)F`
Result: 15.1

***
Problem: Specify reported Percent Effect for the compound shown: `Cc1cc(C)cc(C(=O)N2CCN(C(=O)N(C)C)CC2(C)C)c1`
Result: 26.69

Problem: For the compound CCC(Nc1nc(C(C)C)nc2c1cnn2C)c1ccc(O)cc1 (stereo not given) , give its reported Percent Effect.
Result: 1.347

Problem: Please supply the value of reported Percent Effect for the item `COc1ccc(C(=O)N2CCOc3ccncc32)cc1`
Result: 9.514

Problem: Entry `CC(C)C[C@@H]1N[C@H](C(=O)NC(C)C)Cc2c[nH]c3cccc1c23` needs its Percent Effect filled in; supply it.
Result: 22.96

---

System: Mycobacterium tuberculosis
Test: Cornell - Phenotypic assay to identify agents that inhibit growth of Mycobacterium tuberculosis
Type: functional
Design: scale not given: direction of the effect not stated beside the values
Settings: 10 mM as filed; unlikely as a test dose
The whole screen tested about 53,000 compounds, of which about 900 (1.7%) showed an effect of 50% or more. Only a selection was taken, and strong results are over-represented in it overall.
Consider the following compounds and their measured Percent Effect readings.
Show the value, then the unit it is measured in.

A selection of reference data follows.
Problem: Send back Mycobacterium tuberculosis Percent Effect of CC(CNC(=O)Nc1ccc(N(C)C)nc1)Cn1cccn1 (stereo unspecified) only.
Result: 53.74%

Problem: System Mycobacterium tuberculosis. Read-out Percent Effect. Item `CCOc1cccc(COC(=O)c2cc(Cl)ccn2)n1` . Report value.
Result: 14.29%

Problem: Provide measured Percent Effect on Mycobacterium tuberculosis for `CCCc1nnc(N2CC[C@@](O)(C3CCOCC3)[C@H](C)C2)s1` please.
Result: -20.29%

Problem: Param request: Percent Effect | system Mycobacterium tuberculosis | item CC(Cn1cccn1)NC(=O)Nc1ccc(N(C)C)nc1 (stereo unspecified)
Result: -5.183%

Problem: Report the value of Percent Effect obtained on Mycobacterium tuberculosis for `Cn1cc(CN(Cc2ccccn2)Cc2ccccc2Cl)cn1` .
Result: 9.224%

Proceed to the following item.
Problem: Report its Percent Effect with Mycobacterium tuberculosis as the test system: `c1ncc(CN2CC(Cc3nccc4cc[nH]c34)C2)cn1`
Result: 24.55%

---

Tested on: Mycobacterium tuberculosis
Experiment: Cornell - Phenotypic assay to identify agents that inhibit growth of Mycobacterium tuberculosis
Type: functional
Set-up: scale not given: direction of the effect not stated beside the values
Conditions: 10 mM as filed; unlikely as a test dose
The campaign covered roughly 53,000 compounds. About 900 (1.7%) showed an effect of 50% or more. This is one part of a sample in which strong results are shown more often than they occur.
Value kind: Percent Effect (%)
The answer is to be given in %; state only the numeric part.

Problem: Return the recorded Percent Effect value; entry: CC(NC(=O)c1cn(CCC2CCCCC2)nn1)c1cnn(C)c1 (stereo not given)
Result: -6.193

Problem: Report Percent Effect, nothing else, for this molecule: CCC(=O)N1CCC(c2cc(Nc3ncccn3)nc(C)n2)C1 (stereo not given)
Result: -34.07

Problem: Fill in reported Percent Effect for this entry: `CCOc1c(Cl)cc(/C=C/c2ncc(C(=O)O)s2)cc1OC`
Result: 33.38

Problem: Given the molecule `COCCN1CCC(c2cncc(N(C)C)n2)CC1` , write its reported Percent Effect.
Result: -17.24

Others:
Problem: Using known records, supply Percent Effect for `Cc1ccc(CN2CC[C@H]3OCC[C@@H](c4nc(C)no4)[C@H]3C2)cc1`
Result: 12.84

---

System: Mycobacterium tuberculosis
Assay: Cornell - Phenotypic assay to identify agents that inhibit growth of Mycobacterium tuberculosis
Assay type: functional
Parameters: scale not given: direction of the effect not stated beside the values
Details: 10 mM as filed; unlikely as a test dose
Out of some 53,000 compounds screened, about 900 (1.7%) showed an effect of 50% or more. Many of the other results were omitted from the sample, so strong results are more common in it than they were.
Value kind: Percent Effect (%)
Please state the figure in %; there is no need to write the unit.

Worked cases, answers included:
Problem: Consider the compound `O=C(NCCc1coc(-c2ccc(F)cc2)n1)NC1CC1` and give its recorded Percent Effect.
Result: 9.97

Problem: Give reported Percent Effect value for CC(C)COC(=O)N1CC(=O)N(Cc2ccc(Cl)cc2)CC(O)C1 (configuration not stated)
Result: -5.11

Problem: Write down Percent Effect measured for item CNc1snc(C)c1C(=O)N1CCCC(n2cc(C)cn2)C1 (configuration not stated)
Result: -17.18

Problem: Provide measured Percent Effect value, entry: `CC1(C)CC(N2Cc3nc(N)ncc3C2=O)CC(C)(C)N1`
Result: 5.443

Problem: Indicate its recorded Percent Effect; the compound in question is `CCNS(=O)(=O)c1ccc2c(c1)c(=O)n(CC)c(=O)n2CC`
Result: 5.155

***
Problem: Tell me its Percent Effect given `O=C(NCc1ccc(Br)cc1F)C1(O)CCSCC1` as the entry.
Result: 15.88

Problem: Consider the compound `O=C(NCCNC(=O)c1scnc1Cl)c1cccs1` and give its recorded Percent Effect.
Result: -53.65
